Below, each entry is listed alongside its reported soluble fraction (log2).
Assay Comment: soluble fraction after stress (log2 fold change); higher = more stays soluble; pooled small domains, quantitative proteomics;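 also: 20 min heating vs room temperature control held 20 min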
Assay Context: stress: 75 degC
# output: bare number, no unit

For orientation, consider the following solved cases.
HMQVTPQVLRLLDVLGDKELSLRQIAEALGLSDRKNIMRNYVVPALDSGRVVRTVPNKPNSRFQKYRK; -0.739
HMEVDDEAIYQGHEPSIRLHRLLKDVGYNSALLPSVVTQIFKDFPGIELAKALPIAMQLLNED; -0.617
HMLPDLQKAIDTFLYEVDSRINTSFEELIDKLNSKEEAVAFFLALLEAVRWGFIKAEQESNSINIKK; -0.898
HMDDTVILPIQINGKRRAEISVPKAMPASEVEKLALANEDVLRFLAGQPIKKLIVVPGRIINVV; 0.0584
HMRPTHYSGPSVIAMINNRVWFSDGSRLAPGEHHDDLEVVGLSPPWSAKVRWQGVEFDVGLFE; -2.35

# lookup: soluble fraction (log2) of HMEPDEQAVKALIAEIDKLSKEKLTLKHEKKLKELREIYDDFTEEEKKLVTNYDILVKMEKRMEVLKKQEG 0.127

Another sequence to check: HMGIAFDYDAGRFDQVPPNLVEKWQQAYPAVDVLSELRRMEAWASANPVNRKSNWQRFIVNWLTRAQDRAG -0.859

Same thing, different sequence: HMEYKKKIGELLIDGNKKLKAANIDTYILDTQLLLGKVLGKDKLYLITNKDEEVSNFKEREFYSLIEKRI 0.0872

Then this sequence: HMANGTVKWFNTTKGFGFIAPETGGKDVFVHISAVERSGLTGLADDQKVTFDVEAGRDGRESAVNLAL 0.0695

// repeat for HMNLSAREWTSADGSRTFQGELTGFQDGKVKVRRSDGKSLVFAIELLSESDQQFIKTNQLVIAKKDED and report 0.0766

Same for HMVEPLIVRNFSINYADIDKLETKIKDYISNSDKSGVNRGRVTSDTRTNMLIVTETASKLAQVEQLLKALD -0.279

Try this sequence next: HMYIVVPDLSKKDINEVANILAAQSLRFQVIDSANFRSDFPKNAVISQKPLAGSEVKVNKKIYLQLNPS -0.43

* * *

Assay Comment: soluble fraction after stress (log2 fold change); higher = more stays soluble; pooled small domains, quantitative proteomics
Assay Context: stress: 75 degC
Class field: derived from soluble fraction (log2); ranges low bin (below -0.8), mid bin (-0.8 to below -0.08), high bin (-0.08 or more)

HMRPDDPYLVIGASREMGDEELKRHYRRLVAETHPDRGIARGLPAEAIAIATRRLAAINAAWDAIERERGL; high bin

Assign a bin to HMGQISDDGALKKLASEVLAANPQALADWKAGKQQAVSFLVGQAMKASKGRGDAALLGELIRAALD high bin

Param item: HMIGVIVDEVDPDSSLKSGDIITEVNREVILNIDDFVGLVEQIQKTGRSSLLLKILRDKKSLWVTIQFV high bin

Same thing, different sequence: HMTHAISKTYAVTGEQLKNGFTLTHTFANGSTRRVDVYPGSRSGKVIAVRNTTDDTTEWIRIVEG mid bin

And then HMARAESYGDIARLEQLLDEHANIAALDPGKLPAVRQQIWTLMRAARMDHDLGLAERPEDDSFDDMLLHV , what is it? high bin

And HMDIDNDIIENILVMGVTKAIAINLSNEFERHRIIANIEYAKEKSKNSEIKNISAFTVEAIRQDYANS ? low bin
